Taken from patent US20140148484A1.

# targetOrSystem: human CRTH2 receptor (Homo sapiens, UniProt Q9Y5Y4)
# Construct: membranes prepared in house from the purchased cell line
# protocolDetails: Human CRTH2 receptor membrane radioligand binding assay (SPA, [3H]-PGD2)
# condition: displacement of [3H]-PGD2 (1 nM) from CHO-K1-hCRTH2 cell membranes, 3 h room temperature
pKi: −log10 of the molar value.

{"compound": "CCc1nn(Cc2ccc(NC(=O)c3ccccc3)cc2)c(CC)c1CC(=O)O [Example 2.3]", "pKi": 8.47}
{"compound": "Cc1cc(Br)ccc1C(=O)Nc1ccc(Cn2nc(C)c(CC(=O)O)c2C)cc1 [Example 1.16]", "pKi": 8.41}
{"compound": "CCc1nn(Cc2ccc(OCc3ccc(OC)c(C(F)(F)F)c3)cc2)c(CC)c1CC(=O)O [Example 13.12]", "pKi": 8.30}
{"compound": "Cc1nn(Cc2ccc(/C=C/c3ccc(C(F)(F)F)cc3)cc2)c(C)c1CC(O)O [Example 12.2]", "pKi": 7.25}

* * *

# targetOrSystem: human CRTH2 receptor (Homo sapiens)
# Construct: membranes prepared in house from the purchased cell line
# Sequence (Q9Y5Y4 1-395): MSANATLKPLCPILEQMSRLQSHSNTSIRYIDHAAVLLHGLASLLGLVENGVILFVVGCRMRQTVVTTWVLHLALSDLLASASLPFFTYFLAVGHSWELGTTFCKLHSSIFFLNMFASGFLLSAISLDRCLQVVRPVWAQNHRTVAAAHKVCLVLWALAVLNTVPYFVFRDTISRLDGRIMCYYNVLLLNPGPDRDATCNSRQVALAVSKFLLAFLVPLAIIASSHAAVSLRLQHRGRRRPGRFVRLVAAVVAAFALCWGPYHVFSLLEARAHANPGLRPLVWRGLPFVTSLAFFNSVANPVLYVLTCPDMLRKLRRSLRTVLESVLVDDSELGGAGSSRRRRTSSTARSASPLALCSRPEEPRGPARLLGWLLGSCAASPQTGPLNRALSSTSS
# protocolDetails: Human CRTH2 receptor membrane radioligand binding assay (SPA, [3H]-PGD2)
# condition: displacement of [3H]-PGD2 (1 nM) from CHO-K1-hCRTH2 cell membranes, 3 h room temperature
measuredParameter: log10 Ki (log10 of the value in nM)

{"molecule": "Cc1nn(Cc2ccc(NCc3ccccc3)cc2)c(C)c1CC(=O)O", "measuredParameter": "log10 Ki", "assayResult": 2.49}
{"molecule": "CCc1nn(Cc2ccc(NC(=O)c3ccccc3C3CCCCC3)cc2)c(CC)c1CC(=O)O", "measuredParameter": "log10 Ki", "assayResult": 0.80}
{"molecule": "Cc1nn(Cc2ccc(NS(=O)(=O)c3ccccc3)cc2)c(C)c1CC(=O)O", "measuredParameter": "log10 Ki", "assayResult": 1.64}
{"molecule": "CCc1nn(C(C)c2ccc(NC(=O)c3ccc(C(F)(F)F)cc3)cc2)c(CC)c1CC(=O)O (centres unmarked)", "measuredParameter": "log10 Ki", "assayResult": -1.00}
{"molecule": "Cc1nn(Cc2ccc(C(=O)Nc3cccc(C(F)(F)F)c3)cc2)c(C)c1CC(=O)O", "measuredParameter": "log10 Ki", "assayResult": 1.14}
{"molecule": "Cc1c(CC(=O)O)c(C2CCCCC2)nn1Cc1ccc(NC(=O)c2ccc(C(F)(F)F)cc2)cc1", "measuredParameter": "log10 Ki", "assayResult": 1.11}
{"molecule": "Cc1ccc(C(=O)Nc2ccc(Cn3nc(C)c(CC(=O)O)c3C)cc2)c(F)c1", "measuredParameter": "log10 Ki", "assayResult": 1.47}
{"molecule": "Cc1nn(Cc2ccc(NC(=O)OCc3ccc(Cl)c(Cl)c3)cc2)c(C)c1CC(=O)O", "measuredParameter": "log10 Ki", "assayResult": -0.30}
{"molecule": "CCc1nn(Cc2ccc(NC(=O)c3cccc(Cl)c3Cl)cc2)c(CC)c1CC(=O)O", "measuredParameter": "log10 Ki", "assayResult": 1.14}
{"molecule": "Cc1nn(Cc2ccc(NC(=O)c3ccc4ccccc4n3)cc2)c(C)c1CC(=O)O", "measuredParameter": "log10 Ki", "assayResult": 1.45}
{"molecule": "Cc1ccc(C(=O)Nc2ccc(Cn3nc(C)c(CC(=O)O)c3C)c(Cl)c2)c(C)c1", "measuredParameter": "log10 Ki", "assayResult": 0.67}
{"molecule": "Cc1nn(Cc2ccc(C(O)Cc3ccccc3)cc2)c(C)c1CC(=O)O (centres unmarked)", "measuredParameter": "log10 Ki", "assayResult": 2.89}
{"molecule": "CCc1nn(Cc2ccc(NC(=O)c3cccc(C)c3CC(C)C)cc2)c(CC)c1CC(=O)O", "measuredParameter": "log10 Ki", "assayResult": 1.23}
{"molecule": "Cc1c(CC(=O)O)c(-c2ccccc2)nn1Cc1ccc(NC(=O)c2ccc3ccccc3c2)cc1", "measuredParameter": "log10 Ki", "assayResult": 0.36}
{"molecule": "CCc1nn(Cc2ccc(NC(=O)C3[C@H]4C[C@@H]5C[C@@H](C[C@H]3C5)C4)cc2)c(CC)c1CC(=O)O (some centres unmarked)", "measuredParameter": "log10 Ki", "assayResult": -0.10}
{"molecule": "Cc1nn(Cc2ccc(C(=O)Nc3cccc(F)c3)cc2)c(C)c1CC(=O)O", "measuredParameter": "log10 Ki", "assayResult": 3.17}
{"molecule": "COc1ccc(COc2ccc(Cn3nc(C)c(CC(=O)O)c3C)cc2)cc1C(F)(F)F", "measuredParameter": "log10 Ki", "assayResult": 1.46}
{"molecule": "Cc1nn(Cc2ccc(NC(=O)CCc3ccccc3)cc2Cl)c(C)c1CC(=O)O", "measuredParameter": "log10 Ki", "assayResult": 0.40}
{"molecule": "CCc1c(CC(=O)O)c(C2CC2)nn1Cc1ccc(NC(=O)c2cccc3ccccc23)cc1", "measuredParameter": "log10 Ki", "assayResult": 0.54}
{"molecule": "CCc1nn(Cc2ccc(NC(=O)c3ccc(C(F)(F)F)cc3)cc2)c(CC)c1CC(=O)O", "measuredParameter": "log10 Ki", "assayResult": -0.70}
{"molecule": "Cc1nn(Cc2ccc(NC(=O)c3ccccc3)cc2Cl)c(C)c1CC(=O)O", "measuredParameter": "log10 Ki", "assayResult": 0.74}
{"molecule": "CCc1nn(Cc2ccc(NC(=O)c3ccc(Br)cc3C)cc2)c(CC)c1CC(=O)O", "measuredParameter": "log10 Ki", "assayResult": -0.15}
{"molecule": "CCc1nn(Cc2ccc(C(=O)Nc3ccc(Cl)c(C(F)(F)F)c3)cc2F)c(CC)c1CC(=O)O", "measuredParameter": "log10 Ki", "assayResult": -0.30}
{"molecule": "Cc1nn(Cc2ccc(NC(=O)c3ccc(C(C)(C)C)cc3)cc2)c(C)c1CC(=O)O", "measuredParameter": "log10 Ki", "assayResult": -0.70}
{"molecule": "CCc1nn(Cc2ccc(C(=O)Nc3ccc(F)c(Br)c3)cc2)c(CC)c1CC(=O)O", "measuredParameter": "log10 Ki", "assayResult": 0.49}
{"molecule": "Cc1nn(Cc2ccc(C(=O)Nc3ccc(Cl)c(Cl)c3)cc2)c(C)c1CC(=O)O", "measuredParameter": "log10 Ki", "assayResult": 0.94}
{"molecule": "CCc1nn(Cc2ccc(NC(=O)c3ccc4ccccc4c3Br)cc2)c(CC)c1CC(=O)O", "measuredParameter": "log10 Ki", "assayResult": 0.56}
{"molecule": "Cc1nn(Cc2ccc(NC(=O)c3ccc(Cl)c(Cl)c3)cc2)c(C)c1CC(=O)O", "measuredParameter": "log10 Ki", "assayResult": 0.41}
{"molecule": "CCc1nn(Cc2ccc(NC(=O)c3ccc(Cl)cc3)cc2)c(CC)c1CC(=O)O", "measuredParameter": "log10 Ki", "assayResult": -0.12}
{"molecule": "Cc1nn(Cc2ccc(NC(=O)c3ccc(Cl)cc3)cc2Cl)c(C)c1CC(=O)O", "measuredParameter": "log10 Ki", "assayResult": 0.08}
{"molecule": "CCc1nn(Cc2ccc(NC(=O)c3ccc(C)cc3C)cc2)c(CC)c1CC(=O)O", "measuredParameter": "log10 Ki", "assayResult": 0.15}
{"molecule": "Cc1nn(Cc2ccc(NC(=O)c3ccc4ccccc4c3)cc2Cl)c(C)c1CC(=O)O", "measuredParameter": "log10 Ki", "assayResult": 0.11}
